All figures here come from patent US20240190862A1.

Assign log10(IC50) to each entry below.
- Target System: GDP-bound KRAS protein (aa 1-169) G12C/C118A (Homo sapiens (Human), UniProt P01116, C118A/G12C)
- Sequence (P01116 other isoform, or with tags, fused parts or gaps G12C/C118A): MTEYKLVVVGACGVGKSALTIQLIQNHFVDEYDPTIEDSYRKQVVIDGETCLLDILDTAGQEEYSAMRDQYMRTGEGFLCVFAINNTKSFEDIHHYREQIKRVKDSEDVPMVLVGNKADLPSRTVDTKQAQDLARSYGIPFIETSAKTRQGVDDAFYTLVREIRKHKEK
- Assay Procedure: Coupled Nucleotide Exchange Assay (KRAS G12C)
- Format: biochemical
- Condition Info: 20 h compound pre-incubation; read-out: GDP KRAS G12C 20 h Coupled Exchange IC50 IP
All values: base-10 log of IC50 in nM.

Molecule: Cc1ccnc(C(C)C)c1-n1c(=O)nc(N2CCCC3C2CN3C(=O)C2CO2)c2cc(Cl)c(-c3ccccc3F)nc21 (stereo not drawn)
Experimental Result: 2.42

The following molecules each have a reported value; give each one's log10(IC50).
1. Cc1ccnc(C(C)C)c1-n1c(=O)nc(N2CC(NC(=O)C3CO3)C2)c2cc(Cl)c(-c3ccccc3F)nc21 (stereo not drawn)
2. Cc1ccnc(C(C)C)c1-n1c(=O)nc(N2CCN(C(=O)[C@@H]3CO3)C[C@@H]2C)c2cc(Cl)c(-c3ccccc3F)nc21
3. Cc1ccnc(C(C)C)c1-n1c(=O)nc(N2CCN(C(=O)COc3ccccc3)C[C@@H]2C)c2cc(Cl)c(-c3ccccc3F)nc21
4. Cc1ccnc(C(C)C)c1-n1c(=O)nc(N[C@@H]2CCN(C(=O)C3CO3)C2)c2cc(Cl)c(-c3ccccc3F)nc21 (stereo partly drawn)
5. Cc1ccnc(C(C)C)c1-n1c(=O)nc(N2CCC3(CC2)CN(C(=O)[C@H]2CO2)C3)c2cc(Cl)c(-c3ccccc3F)nc21

1. 1.26
2. 2.92
3. 5.12
4. 3.27
5. 3.85

---

- Target System: GDP-bound KRAS protein (aa 1-169) G12C/C118A (Homo sapiens (Human), UniProt P01116, C118A/G12C)
- Assay Procedure: Coupled Nucleotide Exchange Assay (KRAS G12C)
- Assay type: biochemical
- Condition Info: 5 min compound pre-incubation; read-out: GDP KRAS G12C 5 min Coupled Exchange IC50 IP
Readout: IC50 (µM)
One number for each entry, in µM.

Some molecules with known IC50 results, for comparison:
Molecule: Cc1ccnc(C(C)C)c1-n1c(=O)nc(N2CC(NC(=O)C3CO3)C2)c2cc(Cl)c(-c3ccccc3F)nc21 (centres unmarked)
Readout: IC50
Experimental Result: 4.41

Molecule: Cc1ccnc(C(C)C)c1-n1c(=O)nc(N2CCN(C(=O)COc3c(F)cc(F)cc3F)C[C@@H]2C)c2cc(Cl)c(-c3ccccc3F)nc21
Readout: IC50
Experimental Result: 69.8

Molecule: Cc1ccnc(C(C)C)c1-n1c(=O)nc(N2CC3(CN(C(=O)C4CO4)C3)C2)c2cc(Cl)c(-c3ccccc3F)nc21 (centres unmarked)
Readout: IC50
Experimental Result: 222

The following molecules each have a reported value; give each one's IC50.
1. Cc1ccnc(C(C)C)c1-n1c(=O)nc(N2CCN(C(=O)[C@H]3O[C@@H]3C)C[C@@H]2C)c2cc(Cl)c(-c3ccccc3F)nc21 (mixture of isomers)
2. Cc1ccnc(C(C)C)c1-n1c(=O)nc(N2CCN(C(=O)[C@@H]3CO3)C[C@@H]2C)c2cc(Cl)c(-c3ccccc3F)nc21
3. Cc1ccnc(C(C)C)c1-n1c(=O)nc(N2CC[C@@H](NC(=O)C3CO3)C2)c2cc(Cl)c(-c3ccccc3F)nc21 (some centres unmarked)
4. Cc1ccnc(C(C)C)c1-n1c(=O)nc(N2CCN(C(=O)COc3c(F)c(F)cc(F)c3F)C[C@@H]2C)c2cc(Cl)c(-c3ccccc3F)nc21

1: 17.8; 2: 74.1; 3: 194; 4: 33.9
